The reported measurements were obtained from the supplement of paper PMC9233669.

# System: biotinyl-Phe-oxazolone
# experimental_protocol: self-aminoacylation, catalytic enhancement (BFO) (fold over background); higher = more active; k-Seq, kA / k0A0; sequences stand for … in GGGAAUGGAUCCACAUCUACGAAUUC…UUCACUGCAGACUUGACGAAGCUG
This sample holds only a part of the variants without activity.
// label = t if self-aminoacylation is not less than 3, otherwise f

See these solved cases before continuing.
>>> print(df.to_string())
                           residue_sequence                  target  label_value
0  ACGUUUGCUAAUAGUCGCGAG [Fam3.1 aminoacylation ribozyme variant]  biotinyl-Phe-oxazolone            t
1  CUACUUCUAACAAUCCGUCUG [Fam1A.1 aminoacylation ribozyme variant]  biotinyl-Phe-oxazolone            f
2  AACUUUUCUAAUAGUCGCAAG [Fam3.1 aminoacylation ribozyme variant]  biotinyl-Phe-oxazolone            t
3  AAGUAUUCUAAUAGUCGCAAG [Fam3.1 aminoacylation ribozyme variant]  biotinyl-Phe-oxazolone            t
4  CCACACUGCAAGCAAUCGGCC [Fam1B.1 aminoacylation ribozyme variant]  biotinyl-Phe-oxazolone            t
5  AUUCACCUACGGCAUCGGGUG [Fam2.2 aminoacylation ribozyme variant]  biotinyl-Phe-oxazolone            t
6  CUACUUCAAACAAUCCGUCUA [Fam1A.1 aminoacylation ribozyme variant]  biotinyl-Phe-oxazolone            f
7  AUUAACCUGGUCAUCGAAUGA [Fam2.1 aminoacylation ribozyme variant]  biotinyl-Phe-oxazolone            f
8  AUUCACCUAGGUCAUCGCGUU [Fam2.2 aminoacylation ribozyme variant]  biotinyl-Phe-oxazolone            t
9  AAGUUUGGUAAUAGUCGCACG [Fam3.1 aminoacylation ribozyme variant]  biotinyl-Phe-oxazolone            f

Given the entry CUAUUUCAAUCAAUCGGUCUG [Fam1A.1 aminoacylation ribozyme variant] , answer whether its self-aminoacylation meets or surpasses 3.
t

Given the entry CCACGCUUCAAGCAAUCGGCC [Fam1B.1 aminoacylation ribozyme variant] , answer whether its self-aminoacylation meets or surpasses 3.
t

Given the entry AUUCACCUAGGUGAUCGGCUG [Fam2.2 aminoacylation ribozyme variant] , answer whether its self-aminoacylation meets or surpasses 3.
t

Given the entry CUAUUUCAAACAAUCGGUCUG [Fam1A.1 aminoacylation ribozyme variant] , answer whether its self-aminoacylation meets or surpasses 3.
t

Given the entry CCACACUUCAAGCAAUCCGAC [Fam1B.1 aminoacylation ribozyme variant] , answer whether its self-aminoacylation meets or surpasses 3.
f

Given the entry AUUCACCUAGGUACUCGGGUG [Fam2.2 aminoacylation ribozyme variant] , answer whether its self-aminoacylation meets or surpasses 3.
t

Given the entry AUUCACCUAGGUCAUUGGUUG [Fam2.2 aminoacylation ribozyme variant] , answer whether its self-aminoacylation meets or surpasses 3.
f
